Cited source: paper PMC10698726

MEASURED TARGET: OCT1 (Homo sapiens)
Sequence (O15245 1-554): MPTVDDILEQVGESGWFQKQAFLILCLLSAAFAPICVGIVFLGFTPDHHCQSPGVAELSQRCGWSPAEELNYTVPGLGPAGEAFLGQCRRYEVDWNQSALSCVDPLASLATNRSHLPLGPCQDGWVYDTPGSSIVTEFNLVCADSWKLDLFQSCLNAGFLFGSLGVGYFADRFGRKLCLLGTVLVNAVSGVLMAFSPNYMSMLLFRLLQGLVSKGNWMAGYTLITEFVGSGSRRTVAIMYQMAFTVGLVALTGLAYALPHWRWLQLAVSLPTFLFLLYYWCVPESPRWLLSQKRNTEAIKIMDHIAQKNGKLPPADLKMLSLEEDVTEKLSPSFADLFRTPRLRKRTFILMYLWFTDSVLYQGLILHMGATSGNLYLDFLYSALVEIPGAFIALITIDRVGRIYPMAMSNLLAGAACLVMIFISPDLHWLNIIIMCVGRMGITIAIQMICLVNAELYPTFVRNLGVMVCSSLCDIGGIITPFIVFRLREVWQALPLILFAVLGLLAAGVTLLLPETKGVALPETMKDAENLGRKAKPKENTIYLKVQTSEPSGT
TEST METHOD NOTES: Inhibition of model substrate uptake in OCT1-overexpressing HEK293 cells
Assay type: cell-based
Design: expressed in transfected cells; host or cells: HEK293
RUN PARAMETERS: human, OCT1-overexpressing HEK293 cells, pH 7.4, probe ASP+ (2 μM), OCT1; 20 μM inhibitor, 2 μM ASP+, 5 min; mean of three experiments; read-out: ASP+ inhibition [%]
# if value of inhibition at 5 min, 20 μM reaches 20%, tag T; if it stays below, tag F

COMPOUND | GROUP LABEL
CNCC[C@@H](Oc1ccc(C(F)(F)F)cc1)c1ccccc1 [(R)-Fluoxetine] | T
COc1ccccc1OCCNC[C@@H](O)COc1cccc2[nH]c3ccccc3c12 [(R)-Carvedilol] | T
COc1ccccc1OCCNC[C@H](O)COc1cccc2[nH]c3ccccc3c12 [(S)-Carvedilol] | T
CN(C)CCc1c[nH]c2ccc(C[C@H]3COC(=O)N3)cc12 [(S)-Zolmitriptan] | F
CN(C)CCO[C@](C)(c1ccccc1)c1ccccn1 [(R)-Doxylamine] | T
CC(C)NC[C@@H](O)COc1cccc2ccccc12 [(R)-Propranolol] | T
CNCC[C@@H](Oc1cccc2ccccc12)c1cccs1 [(R)-Duloxetine] | T
CC(C)Cc1ccc([C@H](C)C(=O)O)cc1 [(S)-Ibuprofen] | F
C=C[C@H]1C[N@@]2CC[C@H]1C[C@@H]2[C@@H](O)c1ccnc2ccc(OC)cc12 | F
CNCC[C@H](Oc1cccc2ccccc12)c1cccs1 [(S)-Duloxetine] | T
Cc1cccc(C)c1OC[C@@H](C)N [(R)-Mexiletine] | T
CCCCN1CCCC[C@H]1C(=O)Nc1c(C)cccc1C [(S)-Bupivacaine] | T
CCN(CC)CC#CCOC(=O)[C@](O)(c1ccccc1)C1CCCCC1 [(R)-Oxybutynine] | T
CCCCN1CCCC[C@@H]1C(=O)Nc1c(C)cccc1C [(R)-Bupivacaine] | T
CNC[C@@H](O)c1cccc(O)c1 [(S)-Phenylephrine] | F
CN(C)CCC[C@]1(c2ccc(F)cc2)OCc2cc(C#N)ccc21 [(R)-Citalopram] | T
CN(C)CCC[C@@]1(c2ccc(F)cc2)OCc2cc(C#N)ccc21 [(S)-Citalopram] | T
CCCN[C@H]1CCc2nc(N)sc2C1 [(S)-Pramipexole] | F
CCN1CCC[C@@H]1CNC(=O)c1cc(S(=O)(=O)CC)c(N)cc1OC [(R)-Amisulpride] | T
CC(C)(C)NC[C@H](O)c1ccc(O)c(CO)c1 [(R)-Salbutamol] | F
Cc1cccc(C)c1OC[C@H](C)N [(S)-Mexiletine] | T
CC(C)(C)NC[C@H](O)COc1nsnc1N1CCOCC1 [(S)-Timolol] | F
CC(C)(C)NC[C@@H](O)COc1nsnc1N1CCOCC1 [(R)-Timolol] | F

----------
MEASURED TARGET: OCT3 (Homo sapiens)
Construct: expressed in transfected cells; host or cells: HEK293
Sequence (O75751 1-556): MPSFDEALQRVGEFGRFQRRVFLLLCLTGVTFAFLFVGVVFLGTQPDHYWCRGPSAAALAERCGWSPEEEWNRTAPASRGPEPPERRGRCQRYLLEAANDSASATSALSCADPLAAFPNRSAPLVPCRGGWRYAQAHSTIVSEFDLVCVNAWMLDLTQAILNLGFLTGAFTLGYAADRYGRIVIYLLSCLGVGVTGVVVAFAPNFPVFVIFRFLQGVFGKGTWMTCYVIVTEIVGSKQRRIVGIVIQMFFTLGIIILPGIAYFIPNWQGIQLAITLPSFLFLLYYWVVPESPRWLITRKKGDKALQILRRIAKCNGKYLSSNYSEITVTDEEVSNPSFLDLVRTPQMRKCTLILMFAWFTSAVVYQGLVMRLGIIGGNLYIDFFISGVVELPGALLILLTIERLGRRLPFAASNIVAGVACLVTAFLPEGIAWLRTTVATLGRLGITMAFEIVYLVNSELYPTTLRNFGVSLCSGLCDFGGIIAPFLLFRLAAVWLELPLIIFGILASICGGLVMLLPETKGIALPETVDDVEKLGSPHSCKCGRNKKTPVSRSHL
TEST METHOD NOTES: Inhibition of model substrate uptake in OCT3-overexpressing HEK293 cells
Type: cell-based
RUN PARAMETERS: HEK293, 5 min, read-out: (S,S)-Ethambutol inhibition [%], OCT3; 20 μM inhibitor, 2 μM (S,S)-ethambutol, 5 min
Reported inhibition at 20 µM values follow for various compounds
READOUT NAME: inhibition at 20 µM (%)

COMPOUND | READOUT NAME | REPORTED VALUE
CCN(CC)CC#CCOC(=O)[C@](O)(c1ccccc1)C1CCCCC1 [(R)-Oxybutynine] | inhibition at 20 µM | 64.7
COc1ccccc1OCCNC[C@H](O)COc1cccc2[nH]c3ccccc3c12 [(S)-Carvedilol] | inhibition at 20 µM | 49.5
CC(C)(C)NC[C@@H](O)COc1nsnc1N1CCOCC1 [(R)-Timolol] | inhibition at 20 µM | 8.2
CCN1CCC[C@@H]1CNC(=O)c1cc(S(=O)(=O)CC)c(N)cc1OC [(R)-Amisulpride] | inhibition at 20 µM | 81.3
N[C@@H]1CONC1=O [(R)-Cycloserine] | inhibition at 20 µM | 7.4

----------
Reported (S,S)-Ethambutol inhibition [%] values follow for various compounds
MEASURED TARGET: OCT2 (Homo sapiens, UniProt O15244)
Sequence (O15244 whole entry): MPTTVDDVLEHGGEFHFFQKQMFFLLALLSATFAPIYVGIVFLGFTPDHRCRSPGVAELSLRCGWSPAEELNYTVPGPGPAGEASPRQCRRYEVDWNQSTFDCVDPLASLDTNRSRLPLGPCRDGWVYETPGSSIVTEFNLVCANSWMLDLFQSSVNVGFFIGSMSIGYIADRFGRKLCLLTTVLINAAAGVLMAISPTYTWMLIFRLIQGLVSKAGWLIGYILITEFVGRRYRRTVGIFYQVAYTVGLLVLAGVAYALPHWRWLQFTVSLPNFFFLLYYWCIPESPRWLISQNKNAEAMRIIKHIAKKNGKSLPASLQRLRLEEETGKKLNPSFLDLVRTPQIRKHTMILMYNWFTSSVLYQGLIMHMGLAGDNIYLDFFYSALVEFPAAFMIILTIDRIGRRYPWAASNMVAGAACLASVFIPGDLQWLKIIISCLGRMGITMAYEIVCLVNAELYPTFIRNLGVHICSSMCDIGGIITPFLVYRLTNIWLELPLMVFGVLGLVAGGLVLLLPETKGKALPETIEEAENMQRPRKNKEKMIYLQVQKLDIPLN
TEST METHOD NOTES: Inhibition of model substrate uptake in OCT2-overexpressing HEK293 cells
RUN PARAMETERS: OCT2; 20 μM inhibitor, 2 μM (S,S)-ethambutol, 5 min

COMPOUND | (S,S)-Ethambutol inhibition [%]
CC(C)NC[C@H](O)COc1cccc2ccccc12 [(S)-Propranolol] | 28.4%
NC[C@H](O)c1ccc(O)c(O)c1 [(R)-Norepinephrine] | -1.8%
CC(C)(C)NC[C@@H](O)c1ccc(O)c(CO)c1 [(S)-Salbutamol] | 3.0%
CCN(CC)CC#CCOC(=O)[C@](O)(c1ccccc1)C1CCCCC1 [(R)-Oxybutynine] | 7.4%
CNCC[C@@H](Oc1ccc(C(F)(F)F)cc1)c1ccccc1 [(R)-Fluoxetine] | 28.2%
CC(C)(C)NC[C@H](O)c1ccc(O)c(CO)c1 [(R)-Salbutamol] | -0.3%

----------
MEASURED TARGET: OCT2 (Homo sapiens, UniProt O15244)
TEST METHOD NOTES: Inhibition of model substrate uptake in OCT2-overexpressing HEK293 cells
RUN PARAMETERS: OCT2; 20 μM inhibitor, 2 μM ASP+, 5 min
Reported ASP+ inhibition [%] values follow for various compounds
READOUT NAME: ASP+ inhibition [%] (%)

COMPOUND | REPORTED VALUE
OC[C@@H](O)CN1CCN(c2ccccc2)CC1 [(S)-Dropropizine] | 51.1
C#CCN(C)[C@H](C)Cc1ccccc1 [(R)-Deprenyl] | 101.0
COc1ccc([C@H](CN(C)C)C2(O)CCCCC2)cc1 [(R)-Venlafaxine] | 29.1
NC[C@@H](O)c1ccc(O)c(O)c1 [(S)-Norepinephrine] | 20.5
CC(C)NC[C@H](O)COc1cccc2ccccc12 [(S)-Propranolol] | 57.3

----------
MEASURED TARGET: UniProt:O15245
TEST METHOD NOTES: Inhibition of model substrate uptake in OCT1-overexpressing HEK293 cells
Assay type: cell-based
Set-up: expressed in transfected cells; host or cells: HEK293
RUN PARAMETERS: human, pH 7.4
Reported Sumatriptan inhibition [%] values follow for various compounds

COMPOUND | Sumatriptan inhibition [%]
C#CCN(C)[C@@H](C)Cc1ccccc1 [(S)-Deprenyl] | 68.6%
COc1ccc([C@H](CN(C)C)C2(O)CCCCC2)cc1 [(R)-Venlafaxine] | 70.8%
CC(C)C[C@H](N(C)C)C1(c2ccc(Cl)cc2)CCC1 [(S)-Sibutramine] | 72.0%
